# tested on: Aβ40 (Homo sapiens)
# Construct: purchased Peptide Institute, Inc. (Osaka, Japan) or Anaspec (Fremont, CA, USA)
# Sequence (P05067 672-711): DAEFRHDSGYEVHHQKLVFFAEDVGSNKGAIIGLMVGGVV
# protocol: ITC, APP‐C31 binding to Aβ40
# condition label: read-out: binding affinity (Kd)
No end group written: not given here.
observed property: pKd
Interpret pKd as the negative base-10 log of the concentration measured in mol/L.

Retrieve pKd on Aβ40 (Homo sapiens); query AAVTPEERHLSKMQQNGYENPTYKFFEQMQN [APP‐C31]
3.82
